biological target: CLK4(h) (Homo sapiens, UniProt Q9HAZ1); construct: purchased Eurofins, Dundee, Scotland; experiment: radiometric protein kinase assay, CLK4; type: biochemical; conditions: enzyme inhibition, ATP 10 μM
Sequence (Q9HAZ1 whole entry): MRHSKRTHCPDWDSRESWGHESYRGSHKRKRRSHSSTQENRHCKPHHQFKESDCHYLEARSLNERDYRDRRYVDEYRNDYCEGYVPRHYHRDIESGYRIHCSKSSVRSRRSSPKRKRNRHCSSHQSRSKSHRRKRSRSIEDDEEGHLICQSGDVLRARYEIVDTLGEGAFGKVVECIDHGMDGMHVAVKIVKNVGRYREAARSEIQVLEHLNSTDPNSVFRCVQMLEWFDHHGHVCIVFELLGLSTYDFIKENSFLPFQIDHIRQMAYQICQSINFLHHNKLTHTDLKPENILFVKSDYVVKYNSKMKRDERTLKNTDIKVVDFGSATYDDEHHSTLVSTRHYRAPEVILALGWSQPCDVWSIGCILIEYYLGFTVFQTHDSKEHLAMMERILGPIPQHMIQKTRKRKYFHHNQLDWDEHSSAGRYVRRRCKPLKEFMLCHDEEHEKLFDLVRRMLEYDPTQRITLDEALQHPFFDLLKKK
IC50: recorded values
Could you give me the number in nM? Just the number is fine.

Example molecules with recorded IC50:
# MOLECULE, MEASURED_TARGET, IC50 (nM)
measured = [
    ("CC(C)n1cnc2c(Nc3cc(N)cc(Cl)c3)nc(N[C@H]3CCCNC3)nc21", "CLK4(h) (Homo sapiens, UniProt Q9HAZ1)", 61),
    ("CC(C)n1cnc2c(Nc3cccc(Cl)c3)nc(N[C@@H]3CCCC[C@H]3N)nc21", "CLK4(h) (Homo sapiens, UniProt Q9HAZ1)", 634),
    ("CC(C)n1cnc2c(Nc3cccc(Cl)c3)nc(N[C@H]3CCCC[C@H]3N)nc21", "CLK4(h) (Homo sapiens, UniProt Q9HAZ1)", 70),
    ("CC(C)n1cnc2c(Nc3cc(N)cc(Cl)c3)nc(N[C@@H]3CCCC[C@H]3N)nc21", "CLK4(h) (Homo sapiens, UniProt Q9HAZ1)", 648),
    ("CC(C)n1cnc2c(Nc3cc(N)cc(Cl)c3)nc(N[C@H]3CCCC[C@H]3N)nc21", "CLK4(h) (Homo sapiens, UniProt Q9HAZ1)", 28),
    ("CC(C)n1cnc2c(Nc3cc(N)cc(Cl)c3)nc(N[C@H]3CCNC3)nc21", "CLK4(h) (Homo sapiens, UniProt Q9HAZ1)", 77),
    ("CC(C)n1cnc2c(Nc3cccc(Cl)c3)nc(N[C@@H]3CCCC[C@@H]3N)nc21", "CLK4(h) (Homo sapiens, UniProt Q9HAZ1)", 50),
    ("CC(C)n1cnc2c(Nc3cc(N)cc(Cl)c3)nc(N[C@H]3CCCC[C@@H]3N)nc21", "CLK4(h) (Homo sapiens, UniProt Q9HAZ1)", 124),
    ("CC(C)n1cnc2c(Nc3cc(N)cc(Cl)c3)nc(N[C@@H]3CCCC[C@@H]3N)nc21", "CLK4(h) (Homo sapiens, UniProt Q9HAZ1)", 25),
    ("CC(C)n1cnc2c(Nc3cc(N)cc(Cl)c3)nc(NC3CCCCC3N)nc21 (racemic)", "CLK4(h) (Homo sapiens, UniProt Q9HAZ1)", 54),
]

**Q:** Could you share which IC50 value was measured for `CC(C)n1cnc2c(Nc3cc(N)cc(Cl)c3)nc(N[C@@H]3CCCNC3)nc21` ?
**A:** 102

**Q:** Could you share which IC50 value was measured for `CCn1cnc2c(Nc3cccc(Cl)c3)nc(N[C@H]3CCCC[C@@H]3N)nc21` ?
**A:** 498

**Q:** Could you share which IC50 value was measured for `CC(=O)Nc1cc(Cl)cc(Nc2nc(N[C@@H]3CCCC[C@@H]3N)nc3c2ncn3C(C)C)c1` ?
**A:** 30

**Q:** Could you share which IC50 value was measured for CCn1cnc2c(Nc3cccc(Cl)c3)nc(NC3CCCCC3N)nc21 (racemic) [CGP-74514A (1), reference compound] ?
**A:** 104

**Q:** Could you share which IC50 value was measured for CC(=O)Nc1cc(Cl)cc(Nc2nc(NC3CCCCC3N)nc3c2ncn3C(C)C)c1 (racemic) ?
**A:** 64
